EXPERIMENTAL_SYSTEM: human PDHK1 (hPDHK1) (Homo sapiens (Human), UniProt Q15118)
Sequence (Q15118 29-436): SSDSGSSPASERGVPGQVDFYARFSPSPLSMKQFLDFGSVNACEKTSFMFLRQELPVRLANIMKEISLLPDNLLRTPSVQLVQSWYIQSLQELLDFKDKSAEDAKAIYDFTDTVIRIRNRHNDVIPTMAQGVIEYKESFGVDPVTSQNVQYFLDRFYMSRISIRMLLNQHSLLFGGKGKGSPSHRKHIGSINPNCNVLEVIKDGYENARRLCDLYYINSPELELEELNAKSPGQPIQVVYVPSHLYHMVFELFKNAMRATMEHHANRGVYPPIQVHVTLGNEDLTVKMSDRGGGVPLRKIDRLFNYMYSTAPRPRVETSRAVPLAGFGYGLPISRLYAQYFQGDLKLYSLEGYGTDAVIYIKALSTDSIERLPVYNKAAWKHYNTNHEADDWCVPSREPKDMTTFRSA
TEST_DETAILS: Inhibitory action of PDHK1 activity in vitro (residual PDH activity after PDHK reaction)
EXPERIMENTAL_SETUP: PDH/hPDHK1 complex solution, PDHK reaction at room temperature for 45 min, NADH absorbance at 340 nm; read-out: hPDK1 IC50
OBSERVABLE: IC50 (nM)

>>> recorded_measurement("C[C@H]1CN(C(=O)c2cc3n(n2)CCC3)Cc2onc([C@@](C)(O)C(F)(F)F)c21 [Example 100]")
4

A: C[C@H]1CN(C(=O)c2ccc(F)c(-c3ccncc3F)c2)Cc2cnc([C@@](C)(O)C(F)(F)F)n21 [Example 82]
B: C[C@H]1CN(C(=O)c2cnc3ccc(F)cn23)Cc2cnc([C@@](C)(O)C(F)(F)F)n21 [Example 8]
C: C[C@H]1CN(C(=O)c2nn(C)c3cc(F)c(F)cc23)Cc2cnc([C@@](C)(O)C(F)(F)F)n21 [Example 10]
Task: Arrange the 3 entries by IC50 so the values rise. Rank the items, then write their labels in that order.
Result: A, C, B
(A: 5 nM, C: 9 nM, B: 49 nM)
